# Assay Procedure: Half life in dog hepatocytes
# Assay type: ADME, cell-based, Canis lupus familiaris, Hepatocyte
Quantity Name: half-life (h)
Reply numerically in h, unit not repeated.

Request: What measured half-life goes with "O=C(Nc1nc2cccc(-c3ccc(CN4CCS(=O)(=O)CC4)cc3)n2n1)C1CC1" ?
Response: 3.33

----------
# Assay Procedure: Thermodynamic solubility in aqueous buffer solution at pH 7.4
# Assay type: physicochemical
Quantity Name: Therm solubility (µg/mL)
Reply numerically in µg/mL, unit not repeated.

Request: What measured Therm solubility goes with O=C(Nc1nc2cccc(-c3ccc(CN4CCS(=O)(=O)CC4)cc3)n2n1)C1CC1 [FILGOTINIB] ?
Response: 40
